- assay.procedure: chemical genetic growth profiling, strain panel (AID 1159580);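 note: tested at 20 µM; growth read once vehicle control cultures reached saturation at 30 °C; 1 = growth at the plate median or of vehicle wells; lower values mean less growth of the strain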
- recorded.conditions: S. cerevisiae deletion strains, growth OD, locus YJL187C, strain SWE1
Among all 5,500 compounds or so, about 2,000 (36%) were called active. Inconclusive results (about 18%) are left out. Cut-off read from the data, not from the text of the source: active = normalized growth mostly below about 0.91 (no sharp cut-off); inconclusive = no clear call, values can overlap the other calls; inactive = mostly above about 0.92. This is one part of the list.
Classes used: Yes = active, No = inactive

1) CC12CCC(=O)C=C1CCC1C2[C@@H](O)CC2(C)C1CC[C@]2(O)C(=O)COP(=O)(O)O (stereo partly drawn)	No
2) COc1ccc([C@@H]2CC(=O)c3c(O)cc(O[C@@H]4O[C@H](CO[C@H]5O[C@@H](C)[C@H](O)[C@@H](O)[C@H]5O)[C@@H](O)[C@H](O)[C@H]4O)cc3O2)cc1O	No
3) CC(C)NCC(O)COc1ccc(COCCOC(C)C)cc1 (stereo not drawn)	No
4) CC(C)CCCC(C)[C@H]1CCC2C3CC=C4C[C@@H](O)CC[C@]4(C)C3CC[C@@]21C (stereo partly drawn)	No
5) CC(C)=CCc1c2c(c3occ(-c4ccc(O)cc4)c(=O)c3c1O)C=CC(C)(C)O2	Yes
6) COC(=O)C/C(N)=C(\C#N)C(=O)OC	No
7) COC(=O)c1c(OC)cc2c(c1C)Oc1c(Cl)c(O)c(Cl)c(C)c1C(=O)O2	No
8) CC(C)CCCC(C)[C@H]1CCC2C3CC=C4CC(=O)CC[C@]4(C)C3CC[C@@]21C (stereo partly drawn)	No
9) OC[C@H]1O[C@@H](O[C@H]2[C@H](O)[C@@H](O)[C@@H](O)O[C@@H]2CO)[C@H](O)[C@@H](O)[C@@H]1O	No
10) NCC(N)C(=O)c1ccccc1 (stereo not drawn)	No
11) Fc1cc(F)cc(COc2cc(Cl)cc(Cl)c2)c1	No
12) Clc1cncc(Cl)c1N/N=C\C1CC2C=CC1C2 (stereo not drawn)	No
13) COC1CC2CCC(C)C(O)(O2)C(=O)C(=O)N2CCCCC2C(=O)OC(C(C)CC2CCC(O)C(OC)C2)CC(=O)C(C)/C=C(\C)C(O)C(OC)C(=O)C(C)CC(C)/C=C/C=C/C=C/1C (stereo not drawn)	Yes
14) O=C(O)c1cc(O)c2c(c1)[C@@H]([C@H]1c3cc(C(=O)O)cc(O)c3C(=O)c3c(O[C@H]4O[C@H](CO)[C@@H](O)[C@H](O)[C@H]4O)cccc31)c1cccc(O[C@H]3O[C@H](CO)[C@@H](O)[C@H](O)[C@H]3O)c1C2=O	No
15) CC1=CCCC2C1(C)CCC(C)C2(C)CC/C(C)=C/C[n+]1cn(C)c2c(N)ncnc21 (stereo not drawn)	No
16) CC(C)CCCC(C)C1CCC2C3CC(=O)[C@H]4C[C@@H](O)CC[C@]4(C)C3CC[C@]12C (stereo partly drawn)	No
17) Oc1cccc(O)c1	No
18) CC(C)=CC1C(C(=O)O)C1(C)C (stereo not drawn)	No

====

normalized growth overview
- assay.procedure: chemical genetic growth profiling, strain panel (AID 1159580);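 note: tested at 20 µM; growth read once vehicle control cultures reached saturation at 30 °C; 1 = growth at the plate median or of vehicle wells; lower values mean less growth of the strain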
- recorded.conditions: S. cerevisiae deletion strains, growth OD, locus YDR001C, strain nth1, active compounds read low
Out of some 5,500 compounds screened, about 2,000 (36%) were called active. Not shown: some 18% with an inconclusive outcome. Some of the results follow.
reported.metric: normalized growth

1) CC(CCc1ccccc1)NCC(O)c1ccc(O)c(C(N)=O)c1 (stereo unspecified)	1.01
2) O=P1(NCCCl)OCCCN1CCCl (stereo unspecified)	0.985
3) CC(CCC(=O)O)[C@H]1CCC2C3C(=O)C[C@@H]4CC(=O)CC[C@]4(C)C3CC(=O)[C@@]21C (stereo partly specified)	0.993
4) O=C1NC(O)=NC1(c1ccccc1)c1ccccc1	1.02
5) CC(C)(C)NCC(O)c1ccc(O)c(CO)c1 (stereo unspecified)	1.01
6) OC[C@H]1O[C@@H](O[C@@H]2[C@@H](CO)O[C@](O)(CO)[C@H]2O)[C@H](O)[C@@H](O)[C@H]1O	1.01
7) CC(CCC(=O)O)[C@H]1CCC2C3CC[C@@H]4C[C@H](O)CC[C@]4(C)C3C=C[C@@]21C (stereo partly specified)	1.01
8) CN(C)C(=O)Oc1cccc([N+](C)(C)C)c1	0.998
9) NS(=O)(=O)c1cc2c(cc1Cl)NC(CSCc1ccccc1)=NS2(=O)=O	1.03
10) CCC(C)[C@H]1O[C@]2(C=C[C@@H]1C)C[C@@H]1C[C@@H](C/C=C(\C)[C@@H](OC3C[C@H](OC)C(O[C@H]4C[C@H](OC)[C@@H](O)[C@H](C)O4)[C@H](C)O3)[C@@H](C)/C=C/C=C3\CO[C@@H]4[C@H](O)C(C)=C[C@@H](C(=O)O1)[C@]34O)O2 (stereo partly specified)	0.996
11) COC1CC2CCC(C)C(O)(O2)C(=O)C(=O)N2CCCCC2C(=O)OC(C(C)CC2CCC(O)C(OC)C2)CC(=O)C(C)/C=C(\C)C(O)C(OC)C(=O)C(C)CC(C)/C=C/C=C/C=C/1C (stereo unspecified)	0.062
12) C[C@H](CCC(=O)O)[C@H]1CCC2C3C(=O)CC4CC(=O)CC[C@]4(C)C3CC(=O)[C@@]21C (stereo partly specified)	0.969
13) CO[C@H]1CC(O[C@@H]2/C(C)=C/C[C@@H]3C[C@@H](C[C@]4(CC[C@H](C)[C@@H](C5CCCCC5)O4)O3)OC(=O)[C@@H]3C=C(C)/C(=N\O)[C@H]4OC/C(=C\C=C\[C@@H]2C)[C@]43O)O[C@@H](C)C1O (stereo partly specified)	1.01
14) CC(=O)O[C@@H]1C=C[C@@]2(C)C(C[C@@H](OC(C)=O)[C@@]3(C)C4=CC(=O)O[C@@H](c5ccoc5)[C@]4(C)CCC23)C1(C)C (stereo partly specified)	0.993
15) CC(N=C(NC#N)Nc1ccncc1)C(C)(C)C (stereo unspecified)	0.963
16) CN[C@@H]1[C@H](O)[C@H](NC)[C@H]2O[C@@]3(O)C(=O)C[C@@H](C)O[C@H]3O[C@@H]2[C@H]1O	0.997

====

- assay.procedure: chemical genetic growth profiling, strain panel (AID 1159580);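 note: tested at 20 µM; growth read once vehicle control cultures reached saturation at 30 °C; 1 = growth at the plate median or of vehicle wells; lower values mean less growth of the strain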
- recorded.conditions: S. cerevisiae deletion strains, growth OD, locus YDR392W, strain spt3, active compounds read low
In all, about 5,500 compounds went through this assay and about 2,000 (36%) were called active. About 18% were inconclusive and are not listed. This is one part of the list.
normalized growth overview
reported.metric: normalized growth

1. CC(C)=CCc1c2c(c3occ(-c4ccc(O)c(O)c4)c(=O)c3c1O)C=CC(C)(C)O2	0.782
2. CC(C)CCCC(C)[C@H]1CCC2C3C(=O)C=C4C[C@@H](O)CC[C@]4(C)C3CC[C@@]21C (some centres undefined)	0.968
3. CC(=O)O[C@H]1CC[C@@]2(C)C(=CC(=O)C3C4CCC(C(C)CCCC(C)C)[C@@]4(C)CCC32)C1 (some centres undefined)	0.944
4. CC(C)CCCC(C)[C@H]1CCC2C3CC=C4CC(=O)CC[C@]4(C)C3CC[C@@]21C (some centres undefined)	0.932

====

- assay.procedure: chemical genetic growth profiling, strain panel (AID 1159580);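 note: tested at 20 µM; growth read once vehicle control cultures reached saturation at 30 °C; 1 = growth at the plate median or of vehicle wells; lower values mean less growth of the strain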
- recorded.conditions: S. cerevisiae deletion strains, growth OD, locus YOR061W, strain CKA2
Screen size: about 5,500 compounds; about 2,000 (36%) were called active. About 18% were inconclusive and are not listed. Rule as the data show it: active = normalized growth mostly below about 0.91 (no sharp cut-off); inconclusive = no clear call, values can overlap the other calls; inactive = mostly above about 0.92. The list shows a part of the results.
Classes used: active, inactive

1) CC(=O)OC1CCC2(C)C(CC(OC(C)=O)C3(C)C4=CC(=O)OC(c5ccoc5)C4(C)CCC23)C1(C)C (centres undefined)	inactive
2) Cc1c(C)c2c(c(C)c1O)CCC(C)(CCCC(C)CCCC(C)CCCC(C)C)O2 (centres undefined)	inactive
3) CN(C)CCCN1c2ccccc2CCc2ccc(Cl)cc21	active
4) COc1ccc(C2Sc3ccccc3N(CCN(C)C)C(=O)C2OC(C)=O)cc1 (centres undefined)	inactive
5) CC(=O)O[C@@H]1CC2C(C)(C)C(=O)C=C[C@]2(C)C2CC[C@]3(C)C(=CC(=O)O[C@H]3c3ccoc3)[C@@]21C (some centres undefined)	inactive
6) Clc1ccc(SCc2ccsc2-c2ncns2)cc1	inactive
7) CC(=O)O[C@@H]1CC[C@@]2(C)C(C[C@@H](OC(C)=O)[C@@]3(C)C4=CC(=O)O[C@@H](c5ccoc5)[C@]4(C)CCC23)C1(C)C (some centres undefined)	inactive
8) CC(=O)O[C@@H]1C=C[C@@]2(C)C(C[C@@H](OC(C)=O)[C@@]3(C)C4=CC(=O)O[C@@H](c5ccoc5)[C@]4(C)CCC23)C1(C)C (some centres undefined)	inactive
9) CCOC(=O)/C(C#N)=C(\Nc1ccc(C(=O)OCC)cc1)SC	inactive
10) CN(C)CCCN1c2ccccc2Sc2ccccc21	inactive
11) CCOC(=O)NNc1nncc2ccccc12	inactive
12) O=P1(N(CCCl)CCCl)NCCCO1 (centres undefined)	inactive
13) CCN1CCN(C(=O)NC(C(=O)N[C@@H]2C(=O)N3[C@@H]2SC(C)(C)[C@@H]3C(=O)O)c2ccccc2)C(=O)C1=O (some centres undefined)	inactive
14) CC(=O)O[C@H]1CC[C@@]2(C)C(C[C@@H](OC(C)=O)[C@@]3(C)C4=CC(=O)O[C@@H](c5ccoc5)[C@]4(C)CCC23)C1(C)C (some centres undefined)	inactive
15) N/C(Cc1cccc2ccccc12)=N/OC(=O)c1ccc(Cl)cc1	inactive
16) CN(C)CCCN1c2ccccc2Sc2ccc(Cl)cc21	inactive
17) CC(=O)O[C@@H]1CC2C(C)(C)[C@H](O)C=C[C@]2(C)C2CC[C@]3(C)C(=CC(=O)O[C@H]3c3ccoc3)[C@@]21C (some centres undefined)	inactive
18) CN(C)CCCN1c2ccccc2CCc2ccccc21	inactive
19) COC(=O)C1=C(Nc2ccccc2NS(=O)(=O)c2ccc(C(F)(F)F)cc2Cl)CSC1	inactive

Where do the numbers come from? From PubChem BioAssay AID1159580.
